Assay: Pharmacokinetic study in mouse
Format: in vivo, CD-1 mouse
Conditions: male, plasma; CD-1 mouse, PO, 20 mg/kg
Measured Parameter: Cmax (nM)
Answers are plain numbers, in nM.

Query block: // Cmax lookup, key: `CC(C)N(C[C@H]1O[C@@H](n2cnc3c(N)ncnc32)[C@H](O)[C@@H]1O)[C@H]1C[C@@H](CCc2nc3cc(C(C)(C)C)ccc3[nH]2)C1`
Result block: 1.9

* * *

Experiment: Pharmacokinetic study in rat
Format: in vivo, Sprague-Dawley rat
Conditions: male, Sprague-Dawley, rat, plasma, iv, 1 mg/kg, SD rat, IV bolus
Measured Parameter: half-life
Quick note: unit goes after the number.

Query block: // half-life lookup, key: CC(C)N(C[C@H]1O[C@@H](n2cnc3c(N)ncnc32)[C@H](O)[C@@H]1O)[C@H]1C[C@@H](CCc2nc3cc(C(C)(C)C)ccc3[nH]2)C1 [Compound A]
Result block: 3.7 h

* * *

Assay: Plasma protein binding by equilibrium dialysis, mouse
Format: in vitro ADME, CD-1 mouse
Conditions: male, CD-1, pH 7.4, read-out: Plasma free fraction
Description: Plasma protein binding was assessed by equilibrium dialysis, utilizing the HT-dialysis cell format with a cellulose semi permeable membrane (molecular weight cut off of 5000 Da). Plasma was warmed to 37° C. and adjusted to pH 7.4 before use. Male Sprague-Dawley rat, male Beagle dog, male CD-1 mouse and mixed sex human plasma was used for the studies. […] Following protein precipitation, the samples were centrifuged and analyzed by LC-MS/MS. […]
Measured Parameter: fraction unbound at 5 μM
Answers are plain numbers.

Query block: // fraction unbound at 5 μM lookup, key: `CC(C)N(C[C@H]1O[C@@H](n2cnc3c(N)ncnc32)[C@H](O)[C@@H]1O)[C@H]1C[C@@H](CCc2nc3cc(C(C)(C)C)ccc3[nH]2)C1`
Result block: 0.138

* * *

Assay: Pharmacokinetic study in dog
Assay type: in vivo, Beagle dog
Conditions: male, plasma; Beagle dog, IV bolus, 1 mg/kg
Measured Parameter: AUC(0-t)

Query block: // AUC(0-t) lookup, key: `CC(C)N(C[C@H]1O[C@@H](n2cnc3c(N)ncnc32)[C@H](O)[C@@H]1O)[C@H]1C[C@@H](CCc2nc3cc(C(C)(C)C)ccc3[nH]2)C1`
Result block: 1550 nM·h

* * *

Assay: Pharmacokinetic study in mouse
Format: in vivo, CD-1 mouse
Conditions: male, CD-1, mouse, plasma, iv, 5 mg/kg, CD-1 mouse, IV bolus, 5 mg/kg; read-out: VDss
Protocol: Oral and IV doses were administered by oral gavage, or by tail vein injection in a 10% ethanol and 90% saline vehicle, respectively. For PO dosing, samples were taken at 0.167, 0.5, 1, 2, 4, 6 and 24 h p.d. For IV administration, samples were taken at 0.05, 0.167, 0.5, 1, 2, 4, 6 and 24 h p.d. […] The levels of Compound A were quantitated in mouse plasma by LC-MS/MS analysis. […] Pharmacokinetic parameters were calculated by noncompartmental methods using WinNonlin (version 5.3; Pharsight, St. Louis, Mo.). […]
Measured Parameter: Vd (L/kg)
Numbers only, in L/kg.

Query block: // Vd lookup, key: `CC(C)N(C[C@H]1O[C@@H](n2cnc3c(N)ncnc32)[C@H](O)[C@@H]1O)[C@H]1C[C@@H](CCc2nc3cc(C(C)(C)C)ccc3[nH]2)C1`
Result block: 1.58

* * *

Assay: Liver microsome stability, dog
Format: in vitro ADME
Details: liver microsomes, pH 7.4, NADPH, 3 μM
Measured Parameter: microsomal CLint at 3 μM (µL/min/mg)
One number for each entry, in µL/min/mg.

Query block: // microsomal CLint at 3 μM lookup, key: `CC(C)N(C[C@H]1O[C@@H](n2cnc3c(N)ncnc32)[C@H](O)[C@@H]1O)[C@H]1C[C@@H](CCc2nc3cc(C(C)(C)C)ccc3[nH]2)C1`
Result block: 39

* * *

Assay: Plasma stability, mouse
Type: in vitro ADME, CD-1 mouse
Details: CD-1, pooled plasma, 37° C., read-out: Half-life in ex vivo blood plasma
Measured Parameter: half-life at 1 μM

Query block: // half-life at 1 μM lookup, key: `CC(C)N(C[C@H]1O[C@@H](n2cnc3c(N)ncnc32)[C@H](O)[C@@H]1O)[C@H]1C[C@@H](CCc2nc3cc(C(C)(C)C)ccc3[nH]2)C1`
Result block: > 120 min

* * *

Assay: Pharmacokinetic study in mouse
Assay type: in vivo, CD-1 mouse
Conditions: male, plasma; CD-1 mouse, IV bolus, 5 mg/kg
Measured Parameter: MRT
Quick note: unit goes after the number.

Query block: // MRT lookup, key: CC(C)N(C[C@H]1O[C@@H](n2cnc3c(N)ncnc32)[C@H](O)[C@@H]1O)[C@H]1C[C@@H](CCc2nc3cc(C(C)(C)C)ccc3[nH]2)C1 [Compound A]
Result block: 21 min

* * *

Assay: Pharmacokinetic study in mouse
Assay type: in vivo, CD-1 mouse
Conditions: male, plasma; CD-1 mouse, IV bolus, 5 mg/kg
Protocol: Oral and IV doses were administered by oral gavage, or by tail vein injection in a 10% ethanol and 90% saline vehicle, respectively. For PO dosing, samples were taken at 0.167, 0.5, 1, 2, 4, 6 and 24 h p.d. For IV administration, samples were taken at 0.05, 0.167, 0.5, 1, 2, 4, 6 and 24 h p.d. […] The levels of Compound A were quantitated in mouse plasma by LC-MS/MS analysis. […] Pharmacokinetic parameters were calculated by noncompartmental methods using WinNonlin (version 5.3; Pharsight, St. Louis, Mo.). […]
Measured Parameter: AUC(0-t)
Quick note: unit goes after the number.

Query block: // AUC(0-t) lookup, key: CC(C)N(C[C@H]1O[C@@H](n2cnc3c(N)ncnc32)[C@H](O)[C@@H]1O)[C@H]1C[C@@H](CCc2nc3cc(C(C)(C)C)ccc3[nH]2)C1 [Compound A]
Result block: 1.95 µM·h

* * *

Assay: Plasma protein binding by equilibrium dialysis, dog
Assay type: in vitro ADME
Details: male, beagle, pH 7.4, read-out: Plasma free fraction
Measured Parameter: fraction unbound at 5 μM
Give bare numbers.

Query block: // fraction unbound at 5 μM lookup, key: `CC(C)N(C[C@H]1O[C@@H](n2cnc3c(N)ncnc32)[C@H](O)[C@@H]1O)[C@H]1C[C@@H](CCc2nc3cc(C(C)(C)C)ccc3[nH]2)C1`
Result block: 0.234

* * *

Assay: Pharmacokinetic study in rat
Assay type: in vivo, Sprague-Dawley rat
Settings: male, Sprague-Dawley, plasma; SD rat, IV infusion, 4.7 mg/kg/day for 7 days
Measured Parameter: Tmax

Query block: // Tmax lookup, key: `CC(C)N(C[C@H]1O[C@@H](n2cnc3c(N)ncnc32)[C@H](O)[C@@H]1O)[C@H]1C[C@@H](CCc2nc3cc(C(C)(C)C)ccc3[nH]2)C1`
Result block: 4 h

* * *

Experiment: Pharmacokinetic study in mouse
Type: in vivo, CD-1 mouse
Settings: male, CD-1, mouse, plasma, iv, 5 mg/kg, mouse; read-out: Unbound VDss
Measured Parameter: Vd (L/kg)
Numbers only, in L/kg.

Query block: // Vd lookup, key: `CC(C)N(C[C@H]1O[C@@H](n2cnc3c(N)ncnc32)[C@H](O)[C@@H]1O)[C@H]1C[C@@H](CCc2nc3cc(C(C)(C)C)ccc3[nH]2)C1`
Result block: 11.4

* * *

Test: Pharmacokinetic study in rat
Type: in vivo, Sprague-Dawley rat
Settings: male, Sprague-Dawley, rat, plasma, iv, 1 mg/kg, rat; read-out: Unbound VDss
Measured Parameter: Vd (L/kg)
Answers are plain numbers, in L/kg.

Query block: // Vd lookup, key: CC(C)N(C[C@H]1O[C@@H](n2cnc3c(N)ncnc32)[C@H](O)[C@@H]1O)[C@H]1C[C@@H](CCc2nc3cc(C(C)(C)C)ccc3[nH]2)C1 [Compound A]
Result block: 6.1

* * *

Assay: Pharmacokinetic study in mouse
Assay type: in vivo, CD-1 mouse
Conditions: male, plasma; CD-1 mouse, PO, 20 mg/kg
Measured Parameter: Tmax (min)
One number for each entry, in min.

Query block: // Tmax lookup, key: CC(C)N(C[C@H]1O[C@@H](n2cnc3c(N)ncnc32)[C@H](O)[C@@H]1O)[C@H]1C[C@@H](CCc2nc3cc(C(C)(C)C)ccc3[nH]2)C1 [Compound A]
Result block: 30

* * *

Assay: Pharmacokinetic study in rat
Assay type: in vivo, Sprague-Dawley rat
Conditions: male, Sprague-Dawley, plasma; SD rat, IV infusion, 4.7 mg/kg/day for 7 days
Measured Parameter: AUC(0-t) (µM·h)
One number for each entry, in µM·h.

Query block: // AUC(0-t) lookup, key: `CC(C)N(C[C@H]1O[C@@H](n2cnc3c(N)ncnc32)[C@H](O)[C@@H]1O)[C@H]1C[C@@H](CCc2nc3cc(C(C)(C)C)ccc3[nH]2)C1`
Result block: 12.5

* * *

Experiment: Pharmacokinetic study in rat
Type: in vivo, Sprague-Dawley rat
Conditions: male, Sprague-Dawley, plasma; SD rat, IV infusion, 4.7 mg/kg/day for 7 days
Measured Parameter: Cmax (nM)
One number for each entry, in nM.

Query block: // Cmax lookup, key: `CC(C)N(C[C@H]1O[C@@H](n2cnc3c(N)ncnc32)[C@H](O)[C@@H]1O)[C@H]1C[C@@H](CCc2nc3cc(C(C)(C)C)ccc3[nH]2)C1`
Result block: 130
